Reference source: patent US20250326748A1

# Test system: MYB mRNA
# protocol: Splicing RT-qPCR assay, MYB canonical (CJ) and alternative (AJ) junction mRNA
# Type: cell-based, human
# measurement_conditions: Homo sapiens, canonical junction mRNA, qPCR panel; read-out: MYB CJ (decrease in CJ mRNA levels, IC50)
pIC50: −log10 of the molar value. Structures can show the parent of a compound that is named as a salt.
measure_name: pIC50

compound	pIC50
CN[C@@H]1CCN(c2cnc3nc(-c4cc5cn(C)nc5c(F)c4O)cc(Cl)c3c2)C1	> 7.00

Q. Lab note: need pIC50 for C[C@@H]1CN(c2cnc3nc(-c4cc5cn(C)nc5c(F)c4O)cc(C4CC4)c3c2)C[C@H](C)N1 on MYB mRNA, anyone have it?
A. 6.00 to 7.00

Q. Lab note: need pIC50 for C[C@@H]1CN(c2cnc3nc(-c4cc5cn(C)nc5c(F)c4O)ccc3c2)C[C@H](C)N1 on MYB mRNA, anyone have it?
A. > 7.00

Q. Lab note: need pIC50 for Cc1c(O)c(-c2ccc3nc(N4CCNC(C)C4)cnc3n2)cc2cn(C)nc12 (stereo not shown) on MYB mRNA, anyone have it?
A. 6.00 to 7.00

Q. Lab note: need pIC50 for Cn1cc2cc(-c3ccc4cc(N5CC[C@H](NCC6CC6)C5)cnc4n3)c(O)cc2n1 on MYB mRNA, anyone have it?
A. 6.00 to 7.00

Q. Lab note: need pIC50 for C[C@@H]1CN(c2cnc3nc(-c4cc5cn(C)nc5cc4O)cc(C4CC4)c3c2)C[C@H](C)N1 [Compound 364, hydrochloride] on MYB mRNA, anyone have it?
A. > 7.00

Q. Lab note: need pIC50 for Cc1cn2nc(-c3ccc4cc(N5C[C@@H](C)N[C@@H](C)C5)cnc4n3)cc(C)c2n1 on MYB mRNA, anyone have it?
A. 6.00 to 7.00

---

# Test system: HTT mRNA
# protocol: Splicing RT-qPCR assay, HTT canonical (CJ) and alternative (AJ) junction mRNA
# Type: cell-based, human
# measurement_conditions: Homo sapiens, canonical junction mRNA, qPCR panel; read-out: HTT CJ (decrease in CJ mRNA levels, IC50)
measure_name: IC50

# count of solved cases: 10
compound	test_target	result
Cn1cc2cc(-c3cnc4nc(N5CCNCC5)cc(Cl)c4c3)cc(F)c2n1 [Compound 101]	HTT mRNA	1 to 10 µM
Cc1c(O)c(-c2ccc3cc(N4CCC(NCC5CC5)C4)cnc3n2)cc2cn(C)nc12 (stereo not drawn) [Compound 105]	HTT mRNA	0.1 to 1 µM
CN[C@H]1CCN(c2cnc3nc(-c4cc5cn(C)nc5c(C)c4O)ncc3c2)C1 [Compound 120]	HTT mRNA	0.1 to 1 µM
Cn1cc2cc(-c3cc(Cl)c4cc(N5CCN6CCCC6C5)cnc4n3)cc(F)c2n1 (stereo not drawn) [Compound 216, trifluoroacetic acid]	HTT mRNA	1 to 10 µM
C[C@@H]1CN(c2cnc3nc(-c4cc(F)c5nn(C)cc5c4)cc(Cl)c3c2)CCN1 [Compound 295]	HTT mRNA	0.1 to 1 µM
Cc1cn2nc(-c3ccc4cc(NC5CCNCC5)cnc4n3)cc(C)c2n1 [Compound 210, trifluoroacetic acid]	HTT mRNA	1 to 10 µM
Cc1c(O)c(-c2cc(Cl)c3cc(N4C[C@H](C)NC5(CC5)C4)cnc3n2)cc2cn(C)nc12 [Compound 398]	HTT mRNA	0.1 to 1 µM
Cc1c(O)c(-c2ccc3nc(N4C[C@@H](C)N[C@@H](C)C4)cnc3n2)cc2cn(C)nc12 [Compound 195]	HTT mRNA	1 to 10 µM
COc1cc(-c2cc3cn(C)nc3c(C)c2O)nc2ncc(N3CCNCC3)cc12 [Compound 152, 2,2,2-trifluoroacetate]	HTT mRNA	0.1 to 1 µM
Cc1c(O)c(-c2cc(Cl)c3cc(N4C[C@@H](C)N[C@@H](C)C4)cnc3n2)cc2cn(C)nc12 [Compound 149]	HTT mRNA	0.1 to 1 µM

Q. What value of IC50 has been recorded for this entry: COc1nc(-c2cc3cn(C)nc3c(C)c2O)nc2ncc(N3CCC(N(C)C)CC3)cc12 [Compound 163]
A. 1 to 10 µM

Q. What value of IC50 has been recorded for this entry: C[C@H]1CN(c2cnc3nc(-c4cc(F)c5nn(C)cc5c4)cc(Cl)c3c2)CC2(CC2)N1 [Compound 396]
A. 1 to 10 µM

Q. What value of IC50 has been recorded for this entry: C[C@@H]1CN(c2cnc3nc(-c4cc5cn(C)nc5c(F)c4O)cc(Cl)c3c2)C[C@@H](C)N1 [Compound 281]
A. < 0.1 µM

Q. What value of IC50 has been recorded for this entry: Cc1cn2nc(-c3ccc4c(Cl)c(N5C[C@@H](C)N[C@@H](C)C5)cnc4n3)cc(C)c2n1 [Compound 392]
A. 1 to 10 µM

Q. What value of IC50 has been recorded for this entry: CNC1CCN(c2cnc3nc(-c4cc5cn(C)nc5c(C)c4O)cc(Cl)c3n2)C1 (stereo not drawn) [Compound 193]
A. 0.1 to 1 µM

---

# Tested on: SMN2 mRNA
# protocol: Splicing RT-qPCR panel, SMN2 canonical junction (CJ) mRNA
# Format: cell-based, human
# measurement_conditions: Homo sapiens, read-out: SMN2 CJ (decrease in CJ mRNA levels, IC50)
pIC50: −log10 of the molar value. Counter-ions that a name gives are not always drawn.
measure_name: pIC50

# count of solved cases: 2
molecule	pIC50
Cn1cc2cc(-c3ccc4cc(N5CC[C@@H](NCC6CC6)C5)cnc4n3)c(O)cc2n1	> 7.00
CN(C)[C@H]1CCN(c2cnc3nc(-c4cc5cn(C)nc5c(F)c4O)cc(Cl)c3c2)C1	> 7.00

Q. What value of pIC50 has been recorded for this entry: Cc1c(O)c(-c2ccc3c(C(F)(F)F)c(N4CCNCC4)cnc3n2)cc2cn(C)nc12
A. 6.00 to 7.00

Q. What value of pIC50 has been recorded for this entry: CN[C@@H]1CCN(c2cnc3nc(-c4cc5cn(C)nc5c(C)c4O)ncc3c2)C1 [Compound 107, hydrochloride]
A. > 7.00

Q. What value of pIC50 has been recorded for this entry: Cc1cn2cc(-c3ccc4cc(N(C)[C@@H]5CCNC5)cnc4n3)cc(F)c2n1 [Compound 361, hydrochloride]
A. < 5.00

Q. What value of pIC50 has been recorded for this entry: Cn1cc2cc(-c3cc(Cl)c4cc(N5CCNCC5)cnc4n3)cc(F)c2n1
A. > 7.00

Q. What value of pIC50 has been recorded for this entry: Cc1c(O)c(-c2ccc3cc(N4CCC(NCC5CC5)C4)cnc3n2)cc2cn(C)nc12 (stereo in doubt) [Compound 119]
A. > 7.00

---

Each entry below carries its recorded IC50.
# Test system: MYB mRNA
# protocol: Splicing RT-qPCR assay, MYB canonical (CJ) and alternative (AJ) junction mRNA
# Type: cell-based, human
# measurement_conditions: Homo sapiens; canonical junction mRNA, RT-qPCR, A673 or K562 cells, 24 hours treatment; read-out: MYB CJ (IC50, decrease in CJ mRNA)

compound	test_target	IC50
Cn1cc2cc(-c3cc(Cl)c4cc(N5CCNC6(CC6)C5)cnc4n3)cc(F)c2n1	MYB mRNA	100 to 1000 nM

Q. Lab note: need IC50 for CN[C@@H]1CCN(c2cnc3nc(-c4cc5cn(C)nc5c(F)c4O)cc(Cl)c3c2)C1 on MYB mRNA, anyone have it?
A. < 100 nM

Q. Lab note: need IC50 for Cn1cc2cc(-c3cc(Cl)c4cc(N5CCNCC5)cnc4n3)c(O)c(F)c2n1 on MYB mRNA, anyone have it?
A. < 100 nM

Q. Lab note: need IC50 for CNC1CCN(c2cnc3nc(-c4cc5cn(C)nc5c(C)c4O)ccc3n2)C1 (stereo not shown) on MYB mRNA, anyone have it?
A. 100 to 1000 nM

Q. Lab note: need IC50 for Cn1cc2cc(-c3cc(Cl)c4cc(N5CC[C@@H](NC(C)(C)C)C5)cnc4n3)c(O)c(F)c2n1 on MYB mRNA, anyone have it?
A. 100 to 1000 nM

Q. Lab note: need IC50 for CN[C@H]1CN(c2cnc3nc(-c4cc5cn(C)nc5c(C)c4O)ccc3c2)C[C@H]1C on MYB mRNA, anyone have it?
A. < 100 nM

Q. Lab note: need IC50 for Cc1c(O)c(-c2ccc3cc(N4CCNCC4)cnc3n2)cc2cn(C)nc12 on MYB mRNA, anyone have it?
A. < 100 nM

Q. Lab note: need IC50 for C[C@@H]1CN(c2cnc3nc(-c4cc5cn(C)nc5c(F)c4O)cc(Cl)c3c2)C[C@H](C)N1 on MYB mRNA, anyone have it?
A. < 100 nM
